- subjectOfTest: Histamine N-methyltransferase (Homo sapiens) (UniProt P50135)
- Sequence (P50135 whole entry, looked up): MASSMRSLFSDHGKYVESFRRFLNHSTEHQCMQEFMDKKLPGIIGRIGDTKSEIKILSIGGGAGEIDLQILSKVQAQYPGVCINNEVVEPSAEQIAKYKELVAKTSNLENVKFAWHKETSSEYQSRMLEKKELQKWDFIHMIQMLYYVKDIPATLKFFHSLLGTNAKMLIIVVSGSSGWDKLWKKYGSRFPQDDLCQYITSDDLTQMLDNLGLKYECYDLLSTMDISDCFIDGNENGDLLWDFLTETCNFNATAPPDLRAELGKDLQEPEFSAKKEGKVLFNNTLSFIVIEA
- assayNotes: Primary Screen for Target Class Profiling of Small Molecule Inhibitors of Methyltransferases; also: % is scaled to controls: 0 for no effect and ±100 for the full control effect
- condition: purified enzyme, MTase-Glo SAH luminescence; measured here: HNMT inhibition; at 40 µM; stronger effect = lower value
- Method: PI: Matthew D. Hall Ph.D. and Quinlin M. Hanson Ph.D. National Center for Advancing Translational Sciences (NCATS) National Institute of Health (NIH), Rockville, MD […] High-through put screening assays were developed at the National Center for Advancing Translational Science (NCATS) for the enzymes NNMT, PNMT, HNMT, GNMT, COMT, and GAMT. Enzymatic activity was measured as a function of SAM cofactor conversion using the MTase Glo kit (Promega) for all enzymes. […]
About 970 (3.9%) of roughly 25,000 compounds were called active. Another 8% or so got no clear call; they are omitted. The sample holds actives, similar compounds and a random draw of the others, so the mix is not that of the screen.
metric: activity change, negative = inhibition (%)
I only need the number, in %, no unit after it.

Recorded results for 4 molecules are shown here.
molecule	valueObserved
CCC(C)C(=O)OC1C(C)C2(O)C(C=C(CO)CC3(O)C(=O)C(C)=CC32)C2C(C)(C)C12OC(=O)C(C)C (stereo not given)	-3.1
COc1ccc(C(=O)N2CCC3(CC2)CCC(O)(CN(C)C)CC3)cc1OC	-18.9
COc1cc(NC(=O)CSc2nnc3n(CC(C)C)c(=O)c4ccccc4n23)cc(OC)c1	4.88
COC(=O)c1ncn2c1C(=O)N(Cc1cc(OC)ccc1OC)C(C)(C(=O)NCc1ccccc1)C2 (stereo not given)	-2.02

Enter measured activity change, negative = inhibition, system Histamine N-methyltransferase (Homo sapiens) (UniProt P50135), for the molecule shown: CC1(C(=O)NC2CCCCC2)Cn2c(ccc2-c2ccccc2)C(=O)N1CCC1=CCCCC1 (stereo not given)
8.84

Enter measured activity change, negative = inhibition, system Histamine N-methyltransferase (Homo sapiens) (UniProt P50135), for the molecule shown: CC1=C(C(=O)O)/C(=C/CO[C@@H]2O[C@H](COC(=O)/C=C/c3ccc(O)cc3)[C@@H](O)[C@H](O)[C@H]2O)C(O)C1 (stereo not given in full)
9.32

Enter measured activity change, negative = inhibition, system Histamine N-methyltransferase (Homo sapiens) (UniProt P50135), for the molecule shown: "COc1cccc(-c2nnc3n(CCc4ccccc4)c(=O)c4ccccc4n23)c1O"
2.53

Enter measured activity change, negative = inhibition, system Histamine N-methyltransferase (Homo sapiens) (UniProt P50135), for the molecule shown: "O=C(Nc1ccc2ncnc(N3CCCCC3)c2c1)C1CCCCC1"
-91.6

Enter measured activity change, negative = inhibition, system Histamine N-methyltransferase (Homo sapiens) (UniProt P50135), for the molecule shown: "C=C1C(=O)O[C@@H]2C[C@@]3(C)CCCC(=C)[C@]3(O)C[C@H]12"
6.01

Enter measured activity change, negative = inhibition, system Histamine N-methyltransferase (Homo sapiens) (UniProt P50135), for the molecule shown: "CC(C)CNc1ccnc(NCc2csc(-c3ccccc3)n2)n1"
-83.3
